# Tested on: SN12C renal
# assay_protocol: NCI-60 one-dose screen, 48 h
# test_settings: 10 µM unless noted
Compounds without any hit were thinned out: in the full panel of roughly 83,000, 20% have a hit. The source made the active and inactive calls. How the source made its calls: active means growth percent below 10; inactive means the rest.
Select the correct class. Options are 1.0 = active, 0.0 = inactive and nothing else.

Examples with answers:
Task item: What call does the record list for O=C(CN1C(=O)/C(=C/c2ccc(Cl)cc2)SC1=S)NCCCN1CCOCC1 ?
Reply: 0.0

Task item: Which outcome was assigned to CCN(CC)c1ccc(-c2cc(-c3cc(OC)c(OC)c(OC)c3)nc(N3CCOCC3)c2C#N)cc1 in this test?
Reply: 0.0

Task item: Check the results log: what was the call for COc1ccc2c(c1)c(-c1nonc1-c1cn(C)c3ccccc13)cn2C ?
Reply: 0.0

Task item: Outcome logged for Cn1c(NCCc2ccc(O)c(O)c2)nc2c1c(=O)n(Cc1ccc(Cl)c(Cl)c1)c(=O)n2C in this assay:
Reply: 0.0

---
Task item: What is the recorded call for this compound in the test? Cc1cc2nc3[nH]c4ccccc4c3nc2cc1C
Reply: 0.0

Task item: Check the results log: what was the call for COc1cc2c(cc1-c1c(C)noc1C)ncc1nc(-c3ccccn3)n([C@H](C)COC(F)F)c12 ?
Reply: 0.0

Task item: Called result for CCCc1cc(=O)n2c(C(=O)Nc3cccc(C(=O)OCC)c3)c(C(=O)Nc3ccc(F)cc3)sc2n1
Reply: 0.0

Task item: Check the results log: what was the call for O=C1c2ccccc2OC=C(c2ccccc2)N1CCCCNc1ccc(S(=O)(=O)Nc2ncccn2)cc1 ?
Reply: 0.0

Task item: Hi, do you know how Cn1cc(-c2nonc2-c2c[nH]c3ccccc23)c2cccnc21 came out in this test?
Reply: 0.0

Task item: What did this assay record as the result for COc1cc2c(cc1-c1c(C)noc1C)ncc1nc(C3CCCC3)n([C@H](C)COC(F)F)c12 ?
Reply: 0.0

Task item: Please indicate how the test categorized Clc1ccc2c(NCCCNc3nc(-n4ccnc4)nc4ccccc34)ccnc2c1 .
Reply: 0.0

---

# System: NCI-H23 lung
# assay_protocol: NCI-60 one-dose screen, 48 h
# test_settings: 10 µM unless noted
The panel holds about 83,000 compounds, 20% with a hit somewhere; the sample as a whole holds those more often. Calls of active or inactive are those of the source. Rule for the calls: active = growth percent below 10; inactive = the rest.
Mark one answer only. Choices: active, inactive

Solved cases below.
Task item: Entry CC/C=C\C[C@H](O)C/C=C1/C(=O)C=C[C@@]1(C)C/C=C\CCCC(=O)OC : call = ?
Reply: inactive

Task item: Lab log entry: Cn1cc(-c2nonc2-c2c[nH]c3ccccc23)c2cccnc21 — outcome as called in the assay?
Reply: inactive

Task item: What outcome does the record of this test show for Cc1nn(-c2ccc(F)cc2)c2ncnc(Nc3ccc(NC(=O)Nc4ccc(Cl)c(C(F)(F)F)c4)cc3)c12 ?
Reply: inactive

Task item: // return assay outcome for Cc1cc(C)nc(SC2=C(Nc3ccc(C)c(Cl)c3)C(=O)N(Cc3ccccc3)C2=O)n1
Reply: inactive

Further cases:
Task item: Could you check what this test reported for COc1cc(-c2nn(-c3ccc(C(=O)O)cc3)cc2C(=O)O)ccc1O ?
Reply: inactive

Task item: Dear all, I need the recorded test outcome for Cc1cc(C)nc(SC2=C(Nc3ccc(O)cc3)C(=O)N(Cc3ccccc3)C2=O)n1 , thank you.
Reply: inactive

---

# Test system: NCI-H226 lung
# assay_protocol: NCI-60 one-dose screen, 48 h (100 = growth as untreated, 0 = no growth, -100 = all killed)
# test_settings: 10 µM unless noted
About 83,000 compounds went through this panel and 20% of them were active in at least one assay; those are over-represented in the sample as a whole.
Criterion: growth meeting or surpassing 80%. Met: true. Not met: false.

Task item: hey, is growth for this one >= 80%? CNC(=O)c1cc(Oc2ccc(NC(=O)Nc3ccc(Cl)c(SC)c3)c(F)c2)ccn1
Reply: false

More entries:
Task item: Say whether COc1ccc(C(=O)c2sc3nc4c(c(-c5cccnc5)c3c2N)CCCC4)cc1OC shows growth of 80% or more.
Reply: true

Task item: # bool: growth of Cc1ccc(C2Oc3ccccc3C3CC(c4cccs4)=NN32)cc1 (stereo not given) >= 80%
Reply: true

Task item: Check if growth >= 80% (inclusive). Item: COc1ccc2c(c1)O/C(=C\c1cccc(OCC(=O)Nc3nc4c(s3)CCCC4)c1)C2=O
Reply: true

---

# System: SK-MEL-5 melanoma
# assay_protocol: NCI-60 one-dose screen, 48 h (100 = growth as untreated, 0 = no growth, -100 = all killed)
# test_settings: 10 µM unless noted
About 83,000 compounds went through this panel and 20% of them were active in at least one assay; those are over-represented in the sample as a whole. Activity calls are given as the source filed them. How the source made its calls: active means growth percent below 10; inactive means the rest.
List of growth values.

Worked cases, growth given:
Short answer for C#CCOc1ccc2ncnc(N3CCN(C(=O)CCl)CC3)c2c1 : growth was 57.7% [8.25 µM] (inactive)

growth reading for C=CC(=O)Nc1cccc(-c2nc(SC)nc(Nc3cccc(OC)c3)c2C#N)c1 : 77% (inactive)

Sure, the documented growth for NC(=O)c1cc(I)ccc1NC(=O)/C=C/c1ccccc1Cl is 3.33% (active)

# growth of CC1=CC(C)(C)Nc2ccc(Cc3ccc4c(c3)C(C)=CC(C)(C)N4)cc21 = 92.8% (inactive)

O=C(Nc1ccccc1Cl)c1ccc(NC2=C(Cl)C(=O)N(C3CCCCC3)C2=O)cc1 yielded growth of 54.4% [30 µM] (inactive)

Others:
growth recorded for this molecule, COc1ccc(-n2nc(C)c3c(Oc4ccc(NC(=O)Nc5c(Cl)cccc5Cl)cc4)ncnc32)cc1 , is 99.9% (inactive)

Reported growth for Cc1ccc(/C=C2\SC(=S)N(CC(=O)NCCCN3CCOCC3)C2=O)cc1 was 97.1% (inactive)

// recorded growth for COC(=O)[C@]12CCC(C)(C)C[C@H]1[C@H]1C(=O)C[C@@H]3[C@@]4(C)c5c([nH]c6ccccc6c5=O)C(C)(C)[C@@H]4CC[C@@]3(C)[C@]1(C)CC2 : 12.4% (inactive)

So for COc1ccc(C(=O)COc2ccc(/C=C3\COc4ccc(OC)cc4C3=O)cc2)cc1 , the logged growth turned out to be 74.2% (inactive)

---

Recorded measurements of growth, one per entry
# Test system: BT-549 breast
# assay_protocol: NCI-60 one-dose screen, 48 h (100 = growth as untreated, 0 = no growth, -100 = all killed)
# test_settings: 10 µM unless noted
About 83,000 compounds went through this panel and 20% of them were active in at least one assay; those are over-represented in the sample as a whole. Calls of active or inactive are those of the source. How the source made its calls: active means growth percent below 10; inactive means the rest.

Memo: COc1cccc(NC(=O)c2sc3nc(C)c(C(C)=O)cc3c2N)c1 , reported growth: 53.7% (inactive)

Query Cc1cc(Nc2ccc(C)c(Cl)c2)n2nc(C(F)(F)F)nc2n1 yields growth of 69.6% (inactive)

growth for CC[C@@H](C(=O)[C@@H](C)[C@@H](O)[C@H](C)[C@@H]1O[C@@H]([C@@H](CC)C(=O)O)CC[C@@H]1C)[C@H]1OC2(C=C[C@@H](O)[C@]3(CC[C@@](C)([C@H]4CC[C@](O)(CC)[C@H](C)O4)O3)O2)[C@H](C)C[C@@H]1C (stereo not given in full) is -12.3% (active)

For CC1=CC(=NN=c2cc(C)n([O-])c(C)c2)C=C(C)[N+]1=O the compound record lists growth as 75.1% (inactive)

What the record says about COc1ccc(C(=O)c2sc3nc(C)cc(C)c3c2N)cc1OC : growth is 93.2% (inactive)

Entry O=C1NC(=S)NC(=O)C1CC(=O)n1c(-c2ccccc2)nc2ccccc21 , growth reported as 100% (inactive)

Record O=C(Cc1ccc(/C=C/C(=O)c2ncc[nH]2)cc1)Nc1ccc(F)cc1 . Reported growth: 22.4% (inactive)

The recorded growth for entry COc1ccc(S(=O)(=O)N2CC3(COC3)C2)cc1NC(=O)c1[nH]c(C)c2c1CCCCC2=O equals 73.3% (inactive)

So for CCCCCCN(CCCCCC)CCC(O)c1ccc2ccccc2c1 (stereo not given) , the logged growth turned out to be 74.7% (inactive)

Short answer for COc1ccc2c(c1)C(=O)/C(=C/c1ccccn1)CC2 : growth was 96.4% (inactive)

Please examine the following record next.
For record Cc1nn(-c2ccc(F)cc2)c2ncnc(Oc3ccc(NC(=O)Nc4ccc(Cl)c(C(F)(F)F)c4)cc3)c12 the listed growth is 111% (inactive)

---

# System: CCRF-CEM leukemia
# assay_protocol: NCI-60 one-dose screen, 48 h
# test_settings: 10 µM unless noted
This is part of a sample that, as a whole, favours compounds with a hit. Of some 83,000 tested, about 20% had one in any assay. Active and inactive are the calls of the source. Rule for the calls: active = growth percent below 10; inactive = the rest.
Parameter call: string, one of y for active, n for inactive

Reference set, count: 5
Task item: What did the test return for c1ccc2[nH]c(-c3ccc(Nc4nc(N5CCCC5)nc5[nH]ncc45)cc3)nc2c1 ?
Reply: y

Task item: Record request — test call for COc1ccc(-c2nc3ccc(-c4nc5ccc(N6CCN(c7ccccc7)CC6)cc5[nH]4)cc3[nH]2)cc1OC
Reply: y

Task item: How was O=C(Oc1cccnc1)c1ccsc1Nc1ccnc(C(F)(F)F)c1 classified in this test?
Reply: n

Task item: Hey, what did the test say about Cn1ncc2c(=O)nc3c(-c4ccccc4)n[nH]n3c21 ?
Reply: n

Task item: Entry COc1cc(C2CC(=O)c3ccccc3N2)cc(OC)c1OC (centres undefined) : call = ?
Reply: n

Others:
Task item: Tell me the recorded outcome of this test for CSc1nc(Nc2cccc(NC(=O)/C(C#N)=C/c3c(Cl)cccc3Cl)c2)c(C#N)c(-c2cccc([N+](=O)[O-])c2)n1 .
Reply: n

Task item: What call does the record list for O=C1/C(=C/c2ccc(OCCCOc3ccc(Cl)cc3)cc2)N=C2SCCCN12 ?
Reply: n
